For reference, IC50 measured on Protein kinase C alpha type (Homo sapiens, UniProt P17252):
quantity name: IC50

O=C(N[C@@H]1CNCC1OC(=O)c1cc(O)c(C(=O)c2c(O)cccc2C(=O)O)c(O)c1)c1ccc(O)cc1 (stereo partly drawn); 22 nM
O=C(N[C@@H]1c2ccccc2C[C@H]1OC(=O)c1cc(O)c(C(=O)c2c(O)cccc2C(=O)O)c(O)c1)c1ccc(O)cc1; > 50000 nM
O=C(N[C@@H]1Cc2ccccc2C1OC(=O)c1cc(O)c(C(=O)c2c(O)cccc2C(=O)O)c(O)c1)c1ccc(O)cc1 (mixture of isomers); 70 nM

* * *

Entries and their measured pIC50 follow.
- assay system: Protein kinase C epsilon type (Homo sapiens)
- Sequence (Q02156 whole entry): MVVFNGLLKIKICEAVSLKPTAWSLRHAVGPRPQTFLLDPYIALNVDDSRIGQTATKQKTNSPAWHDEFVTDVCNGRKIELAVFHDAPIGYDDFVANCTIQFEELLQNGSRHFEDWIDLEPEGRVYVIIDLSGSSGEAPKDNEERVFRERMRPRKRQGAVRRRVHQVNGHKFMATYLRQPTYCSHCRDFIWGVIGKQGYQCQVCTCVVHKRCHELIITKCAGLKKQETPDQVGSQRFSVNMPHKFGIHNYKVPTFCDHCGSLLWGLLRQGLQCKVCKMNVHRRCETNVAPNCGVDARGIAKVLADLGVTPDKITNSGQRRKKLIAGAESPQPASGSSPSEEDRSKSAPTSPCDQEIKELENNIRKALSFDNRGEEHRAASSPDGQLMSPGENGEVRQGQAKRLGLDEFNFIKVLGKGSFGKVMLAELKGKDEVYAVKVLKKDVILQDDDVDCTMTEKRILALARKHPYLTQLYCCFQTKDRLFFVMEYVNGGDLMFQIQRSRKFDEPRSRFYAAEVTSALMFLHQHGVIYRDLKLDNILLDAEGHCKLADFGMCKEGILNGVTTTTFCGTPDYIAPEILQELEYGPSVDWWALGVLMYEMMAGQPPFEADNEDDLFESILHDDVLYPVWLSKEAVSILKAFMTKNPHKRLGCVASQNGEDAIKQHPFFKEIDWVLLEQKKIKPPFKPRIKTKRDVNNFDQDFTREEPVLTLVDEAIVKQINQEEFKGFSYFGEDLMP
pIC50: −log10 of the molar value.
quantity name: pIC50

O=C(N[C@@H]1c2ccccc2C[C@@H]1OC(=O)c1cc(O)c(C(=O)c2c(O)cccc2C(=O)O)c(O)c1)c1ccc(O)cc1; 5.72
O=C(N[C@@H]1CNCC1OC(=O)c1cc(O)c(C(=O)c2c(O)cccc2C(=O)O)c(O)c1)c1ccc(O)cc1 (stereo partly drawn); 8.00
O=C(N[C@@H]1CCCC1OC(=O)c1cc(O)c(C(=O)c2c(O)cccc2C(=O)O)c(O)c1)c1ccc(O)cc1 (stereo partly drawn); 7.30

* * *

- assay system: Protein kinase C eta type (Homo sapiens)
- Sequence (P24723 whole entry): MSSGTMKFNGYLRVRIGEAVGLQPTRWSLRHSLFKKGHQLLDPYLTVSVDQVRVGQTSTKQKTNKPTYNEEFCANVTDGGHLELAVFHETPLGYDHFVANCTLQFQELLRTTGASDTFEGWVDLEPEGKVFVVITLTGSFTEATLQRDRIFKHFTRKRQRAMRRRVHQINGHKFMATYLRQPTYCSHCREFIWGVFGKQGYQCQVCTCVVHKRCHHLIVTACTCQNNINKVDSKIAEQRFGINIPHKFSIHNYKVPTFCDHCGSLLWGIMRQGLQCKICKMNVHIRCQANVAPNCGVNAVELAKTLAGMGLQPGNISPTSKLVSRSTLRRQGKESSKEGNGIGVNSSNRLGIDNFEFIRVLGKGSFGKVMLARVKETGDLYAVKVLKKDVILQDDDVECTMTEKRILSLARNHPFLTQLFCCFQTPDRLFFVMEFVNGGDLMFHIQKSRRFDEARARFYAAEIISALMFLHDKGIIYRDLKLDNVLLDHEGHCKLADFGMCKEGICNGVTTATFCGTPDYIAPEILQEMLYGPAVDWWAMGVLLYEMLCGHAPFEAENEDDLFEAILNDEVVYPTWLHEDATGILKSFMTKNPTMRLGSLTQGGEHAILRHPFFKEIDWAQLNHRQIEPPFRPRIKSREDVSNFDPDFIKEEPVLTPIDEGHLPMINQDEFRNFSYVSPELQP
- assay overview: Inhibition of protein kinase C eta
pIC50: −log10 of the molar value.
quantity name: pIC50

O=C(N[C@@H]1c2ccccc2C[C@H]1OC(=O)c1cc(O)c(C(=O)c2c(O)cccc2C(=O)O)c(O)c1)c1ccc(O)cc1; 4.46
O=C(N[C@@H]1CNCC1OC(=O)c1cc(O)c(C(=O)c2c(O)cccc2C(=O)O)c(O)c1)c1ccc(O)cc1 (stereo partly specified); 8.40
O=C(N[C@@H]1CCCC1OC(=O)c1cc(O)c(C(=O)c2c(O)cccc2C(=O)O)c(O)c1)c1ccc(O)cc1 (stereo partly specified); 9.22

* * *

- assay system: Protein kinase C beta type (Homo sapiens, UniProt P05771)
- Sequence (P05771 whole entry): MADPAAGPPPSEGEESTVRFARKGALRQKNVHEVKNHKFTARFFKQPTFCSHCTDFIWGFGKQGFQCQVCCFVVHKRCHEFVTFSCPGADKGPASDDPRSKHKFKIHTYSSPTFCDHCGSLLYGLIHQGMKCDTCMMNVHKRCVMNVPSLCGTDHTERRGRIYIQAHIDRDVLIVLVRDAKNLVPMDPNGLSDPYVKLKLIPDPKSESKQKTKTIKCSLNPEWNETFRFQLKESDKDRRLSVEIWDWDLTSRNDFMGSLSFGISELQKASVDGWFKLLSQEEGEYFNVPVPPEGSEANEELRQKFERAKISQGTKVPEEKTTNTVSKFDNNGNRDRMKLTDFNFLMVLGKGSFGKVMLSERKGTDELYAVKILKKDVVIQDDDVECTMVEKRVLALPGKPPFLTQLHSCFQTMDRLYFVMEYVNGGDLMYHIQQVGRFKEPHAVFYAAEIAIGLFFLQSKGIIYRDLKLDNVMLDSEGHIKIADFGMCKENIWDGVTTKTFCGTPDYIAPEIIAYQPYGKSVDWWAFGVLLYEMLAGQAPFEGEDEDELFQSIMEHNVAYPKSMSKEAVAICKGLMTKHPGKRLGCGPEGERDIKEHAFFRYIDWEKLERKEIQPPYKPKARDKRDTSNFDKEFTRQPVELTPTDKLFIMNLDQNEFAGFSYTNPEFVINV
- assay overview: Inhibition of Protein kinase C beta 2
quantity name: IC50 (nM)

O=C(N[C@@H]1CNCCCC1OC(=O)c1cc(O)c(C(=O)c2c(O)cccc2C(=O)O)c(O)c1)c1ccc(O)cc1 (stereo partly drawn); 10
O=C(NC1CNCCCC1OC(=O)c1cc(O)c(C(=O)c2c(O)cccc2C(=O)O)c(O)c1)c1ccc(O)cc1 (racemic); 260
O=C(N[C@H]1CNCCCC1OC(=O)c1cc(O)c(C(=O)c2c(O)cccc2C(=O)O)c(O)c1)c1ccc(O)cc1 (stereo partly drawn); 880

* * *

Collected IC50 values appear next to each entry.
- assay system: UniProt P05129
- assay overview: Inhibition of protein kinase C gamma
quantity name: IC50 (nM)

O=C(N[C@@H]1c2ccccc2C[C@@H]1OC(=O)c1cc(O)c(C(=O)c2c(O)cccc2C(=O)O)c(O)c1)c1ccc(O)cc1; 50
O=C(N[C@@H]1c2ccccc2CC1OC(=O)c1cc(O)c(C(=O)c2c(O)cccc2C(=O)O)c(O)c1)c1ccc(O)cc1 (mixture of isomers); 160
O=C(N[C@H]1c2ccccc2CC1OC(=O)c1cc(O)c(C(=O)c2c(O)cccc2C(=O)O)c(O)c1)c1ccc(O)cc1 (mixture of isomers); 34000
O=C(N[C@@H]1CCCC1OC(=O)c1cc(O)c(C(=O)c2c(O)cccc2C(=O)O)c(O)c1)c1ccc(O)cc1 (some centres not stated); 10
O=C(N[C@@H]1CNCC1OC(=O)c1cc(O)c(C(=O)c2c(O)cccc2C(=O)O)c(O)c1)c1ccc(O)cc1 (some centres not stated); 12
O=C(N[C@@H]1c2ccccc2C[C@H]1OC(=O)c1cc(O)c(C(=O)c2c(O)cccc2C(=O)O)c(O)c1)c1ccc(O)cc1; 32000
